# ASSAY METHOD TEXT: Toxicity assay (MTS)
# Type: cell-based
# ASSAY SETUP: cell lines harboring the subgenomic replicon RNAs, replicon cells, read-out: cytotoxic effect, CC50
METRIC NAME: CC50 at 72 h

The reported value for `Oc1cc(Br)cc(Br)c1Oc1ccc(Br)cc1Br` in terms of CC50 at 72 h is > 5 µM

---

# STUDY SYSTEM: NS3 RNA binding (Hepatitis C virus genotype 1b)
# Sequence (Q9WMX2 1027-1657): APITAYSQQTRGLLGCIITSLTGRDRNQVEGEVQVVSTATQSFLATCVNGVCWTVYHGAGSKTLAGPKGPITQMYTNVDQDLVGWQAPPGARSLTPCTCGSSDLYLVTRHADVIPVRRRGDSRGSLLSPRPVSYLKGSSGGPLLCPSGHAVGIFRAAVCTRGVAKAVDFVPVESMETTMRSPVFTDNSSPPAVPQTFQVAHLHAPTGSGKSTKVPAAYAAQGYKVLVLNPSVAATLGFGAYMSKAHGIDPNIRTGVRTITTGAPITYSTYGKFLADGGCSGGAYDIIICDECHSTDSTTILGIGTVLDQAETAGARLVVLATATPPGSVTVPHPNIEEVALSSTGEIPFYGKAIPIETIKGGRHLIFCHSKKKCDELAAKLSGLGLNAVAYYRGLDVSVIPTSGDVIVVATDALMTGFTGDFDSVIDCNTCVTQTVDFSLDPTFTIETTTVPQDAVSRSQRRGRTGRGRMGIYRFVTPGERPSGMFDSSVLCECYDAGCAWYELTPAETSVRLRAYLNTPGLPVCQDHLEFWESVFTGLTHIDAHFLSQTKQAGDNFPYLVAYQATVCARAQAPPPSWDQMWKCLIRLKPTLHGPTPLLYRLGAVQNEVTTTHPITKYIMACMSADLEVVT
METRIC NAME: pIC50
Answers are plain numbers, as −log10 of the molar value.

The reported value for `Oc1cc(Br)cc(Br)c1Oc1ccc(Br)cc1Br` in terms of pIC50 is 4.17

---

# STUDY SYSTEM: NS3 ATPase activity (HCV NS3 protein) (Hepatitis C virus genotype 1b)
# ASSAY METHOD TEXT: Radioisotope labeling ATP hydrolysis (ATPase) assay
# Type: biochemical
Classify: Satisfied when IC50 is strictly less than 90 µM; Not satisfied when IC50 is not.

Example entries begin here.
CC(C)(c1cc(Br)c(O)c(Br)c1)c1cc(Br)c(O)c(Br)c1 [Compound 6, 3,3',5,5'-tetrabromobisphenol A] :: Not satisfied
Oc1cc(Br)cc(Br)c1Oc1ccc(Br)cc1Br [Compound 1] :: Satisfied
Oc1ccc(Cl)cc1-c1cc(Cl)c(Cl)c(Cl)c1Cl [Compound 15] :: Satisfied
Oc1c(Br)cc(Br)cc1Br [Compound 5, 2,4,6-tribromophenol] :: Not satisfied
CC(C)(c1cc(Cl)c(O)c(Cl)c1)c1cc(Cl)c(O)c(Cl)c1 [Compound 9, tetrachlorobisphenol A] :: Not satisfied

Query block: Is 90 µM strictly greater than the compound's reported IC50? compound: Brc1ccc(Oc2ccc(Br)cc2Br)c(Br)c1 [Compound 17, 2,2',4,4'-tetrabromodiphenyl ether]
Result block: Not satisfied

Query block: Is 90 µM strictly greater than the compound's reported IC50? compound: COc1cc(Br)cc(Br)c1Oc1ccc(Br)cc1Br [Compound 2, PBDE methyl ether]
Result block: Not satisfied

Query block: Is 90 µM strictly greater than the compound's reported IC50? compound: Oc1ccccc1-c1ccccc1 [Compound 7, O-hydroxybiphenyl]
Result block: Not satisfied

Query block: Is 90 µM strictly greater than the compound's reported IC50? compound: Oc1c(Br)cc(Br)cc1-c1cc(Br)cc(Br)c1O [Compound 3, Bromophene]
Result block: Not satisfied

Query block: Is 90 µM strictly greater than the compound's reported IC50? compound: CC(C)(c1cc(Br)c(OCCO)c(Br)c1)c1cc(Br)c(OCCO)c(Br)c1 [Compound 14]
Result block: Not satisfied

Query block: Is 90 µM strictly greater than the compound's reported IC50? compound: Oc1ccc2cc(Br)ccc2c1Br [Compound 10, 1,6-dibromo-2-naphthol]
Result block: Not satisfied

Query block: Is 90 µM strictly greater than the compound's reported IC50? compound: Oc1cc(Cl)ccc1Oc1ccc(Cl)cc1Cl [Compound 4, triclosan, reference compound]
Result block: Not satisfied

Query block: Is 90 µM strictly greater than the compound's reported IC50? compound: Oc1c(F)c(F)c(-c2c(F)c(F)c(F)c(F)c2F)c(F)c1F [Compound 11]
Result block: Not satisfied

---

# STUDY SYSTEM: UniProtKB Q9WMX2
# ASSAY METHOD TEXT: Radioisotope labeling ATP hydrolysis (ATPase) assay
# Type: biochemical
# ASSAY SETUP: 300 nM NS3, 1 mM [γ-32P] ATP; read-out: NS3 ATPase Inhibition IC50
METRIC NAME: IC50

Past entries and their recorded results:
Oc1c(-c2ccccc2)cc(-c2ccc(Br)cc2)cc1-c1ccccc1 :: > 200 µM
Oc1ccc2cc(Br)ccc2c1-c1c(O)ccc2cc(Br)ccc12 [Compound 8, (R)-(−)-6,6'-dibromo-1,1'-bi-2-naphthol] :: 54 µM
Oc1c(Br)cc2ccccc2c1-c1c(O)c(Br)cc2ccccc12 [Compound 12, (R)-(+)-3-3'-dibromo-1,1'-bi-2-naphthol] :: > 200 µM

The reported value for `Oc1c(Br)cc2c(c1-c1c(O)c(Br)cc3c1CCCC3)CCCC2` in terms of IC50 is > 200 µM

---

# STUDY SYSTEM: NS3 ATPase activity (HCV NS3 protein) (Hepatitis C virus genotype 1b, UniProt Q9WMX2)
# Sequence (Q9WMX2 1027-1657): as above
# ASSAY METHOD TEXT: Radioisotope labeling ATP hydrolysis (ATPase) assay
# Type: biochemical
# ASSAY SETUP: structure-activity discussion of Table 2
METRIC NAME: NS3 ATPase inhibition (result in words)

Oc1c(Br)cc2c(c1-c1c(O)c(Br)cc3c1CCCC3)CCCC2 :: no activity
Oc1c(Br)cc2ccccc2c1-c1c(O)c(Br)cc2ccccc12 [Compound 12, (R)-(+)-3-3'-dibromo-1,1'-bi-2-naphthol] :: no activity
